Reported scaled log2 fold change by item:
B1: library; numbered along this chain (parent)
chain: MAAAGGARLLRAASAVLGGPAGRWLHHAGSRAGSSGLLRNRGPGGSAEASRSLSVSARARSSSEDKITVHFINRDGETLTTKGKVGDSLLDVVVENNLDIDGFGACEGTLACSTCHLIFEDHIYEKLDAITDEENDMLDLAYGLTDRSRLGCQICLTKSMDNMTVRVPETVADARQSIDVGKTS

Variants of: B1
Experiment: scaled log2 fold change in cell abundance, elesclomol vs control (0 = silent mean, 1 = nonsense mean) (scaled log2 ratio); higher = higher viability under elesclomol (loss of FDX1 cuproptosis function);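 also: variant abundance is its share of total variant reads in each endpoint sample, from next-generation sequencing of the integrated ORF PCR-amplified out of genomic DNA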
Settings: with ABC1 FDX1 KO; elesclomol 5 nM; glucose 10 mM; 14 days
Respond using a number only.

>>> print(df.to_string())
   change  test_value
0   L150I         0.2
1    T68I      0.0915
2    S35R      -0.768
3    A15F     -0.0557
4   L150S       0.479

Look up scaled log2 fold change for this variant: L37T
0.382

Proceed to A28S
-0.179

Also I118T ?
-0.289

Cool, now D91T
0.169
